- protocol: Water solubility
- Type: physicochemical
- condition.description: read-out: soluble in water at concentrations
value.type: solubility

# solubility lookup, item O=P(O)(O)CN1CCN(CP(=O)(O)O)CCN(CP(=O)(O)O)CC1 > 500 mg/mL
